# Test system: Vero (normal epithelial) cell lines
# Protocol Details: Safety assay on non-cancerous Vero cells
# Assay type: cell-based
# Condition Description: Chlorocebus sabaeus, read-out: IC50 against Vero

>  <Compound>
Cn1cnc2c1c(=O)n(CC(=O)Nc1ccc(C(=O)NCc3ccccc3)cc1)c(=O)n2C [T-1-NBAB]

>  <System Under Test>
Vero (normal epithelial) cell lines

>  <Readout Units>
µM

>  <IC50>
68.4

$$$$
